system: CAKI-1 renal; assay: NCI tumour cell line growth inhibition, 48 h
# TGI per entry
reportedEndpoint: TGI

{"columns": ["compound", "testSystem", "testResult"],
 "data": [
  ["O=C1C2c3[nH]c4ccccc4c3C3CCSCC3C2C(=O)N1c1ccccc1 (stereo unspecified)", "CAKI-1 renal", "> 100 µM"],
  ["CCOC(=O)c1csc(NC(=O)CN2CCCCC2)n1", "CAKI-1 renal", "> 100 µM"],
  ["O=[N+]([O-])c1ccc2c(c1)OCCOCCOc1ccc([N+](=O)[O-])cc1OCCOCCO2", "CAKI-1 renal", "> 100 µM"],
  ["O=C1C(Cl)=C(Oc2ccccc2)C(=O)c2ccccc21", "CAKI-1 renal", "4.03 µM"],
  ["N#C[C@]12CC3(CC[C@H]1CC1(C2)OCCO1)OCCO3", "CAKI-1 renal", "> 100 µM"],
  ["Cc1cc(S(=O)(=O)Nc2nnc(-c3ccco3)c(-c3ccco3)n2)c(SCc2ccccc2)cc1Cl", "CAKI-1 renal", "55.8 µM"]
]}

* * *

# TGI listing for each entry below
test system: MALME-3M melanoma; assay: NCI tumour cell line growth inhibition, 48 h

{"columns": ["molecule", "qualifierOperator", "TGI, µM"],
 "data": [
  ["CCN(Cc1ccc(F)cc1F)c1ccc(CO)c(Cl)c1", "=", 42.8],
  ["CN(C)c1ccc(/C=C(\\NC(=O)c2ccccc2)c2nc3ccccc3c(=O)o2)cc1", ">", 100],
  ["COC(=O)C1C(O)C(C)C(O)C(C)/C=C\\C=C(C)C(=O)Nc2c(C)c(OC(C)=O)c3c(c2O)C(=O)C(C)=C2OCOC(=C23)C(C)=CC(C)(O)C(O)C(C)C1O (centres undefined)", ">", 100],
  ["COC(=O)[C@H](C)[C@H]1CC[C@@](C)([C@H]2CC3C(C)(C)[C@H]4CCC(C)=C[C@H]4C[C@@]3(C)O2)OO1 (some centres undefined)", "=", 28.3]
]}

* * *

tested on: MALME-3M melanoma; experiment: NCI tumour cell line growth inhibition, 48 h
Consider the following compounds and their measured TGI readings.

{"columns": ["compound", "qualifierOperator", "TGI / µM"],
 "data": [
  ["COc1ccc(C[C@H]2NC[C@H](OC(C)=O)[C@H]2OC(C)=O)cc1", "=", 0.561],
  ["O=S(=O)(O)c1ccc(N=Nc2c(O)ccc3ccccc23)cc1", ">", 100],
  ["CCOC(=O)c1[nH]c2cccc3c2c1CC(Br)C3=O (stereo not given)", "=", 28.2],
  ["O=c1cnn(C/C=C/CP(=O)(O)O)c(=O)[nH]1", ">", 100],
  ["O=C1C(Cl)=C(Oc2ccccc2)C(=O)c2ccccc21", "=", 3.41],
  ["COc1c(O)cc2oc3cc(O)c(CC=C(C)C)c(O)c3c(=O)c2c1C/C=C(\\C)CCC=C(C)C", "=", 12],
  ["CC(=O)O[C@H]1CC[C@@]2(C)C(=CC[C@H]3[C@@H]4C[C@H](N5CCN(C)CC5)[C@H](OC(C)=O)[C@@]4(C)CC[C@@H]32)C1", "=", 24.8],
  ["COc1cccc(/C=C\\c2cc(OC)c(OC)c(OC)c2)c1", "=", 42.8],
  ["O=C(O)C(Cc1ccccc1-c1ccccc1)C(=O)O", ">", 100],
  ["Cc1c2[nH]c3ccc(Br)cc3c2c(C)c2[nH]ccc(=O)c12", "=", 28]
]}

Values were extracted from PubChem BioAssay (NCI).
